Assay: solvent given as SMILES
Details: in ClC(Cl)Cl
Measured attribute: fluorescence lifetime (ns)

In the examples that follow, each entry is paired with its recorded fluorescence lifetime.
> print(dat)
                                 smiles.str  numeric.value
1  CC1=CC(C)=[N+]2C1=C(c1ccc(I)cc1)c1c(C)cc(C)n1[B-]2(OCc1ccccc1)OCc1ccccc1           3.94
2  COc1cc(N(c2ccc(C=C(C#N)C#N)c(OC)c2)c2ccc(C=C(C#N)C#N)c(OC)c2)ccc1C=C(C#N)C#N           0.14

[a] N#CC(C#N)=Cc1ccc(-c2ccc(N(c3ccccc3)c3ccccc3)cc2)s1
[b] C#CCn1c2ccccc2c2cc(/C=C/c3c(Cl)c(C)c4n3[B-](F)(F)[N+]3=C(C)C(Cl)=C(C)C3=C4c3ccc(I)cc3)ccc21
Looking at recorded values for fluorescence lifetime, does a or b come in lower? Selection: enter the item's label.
a
(a: 2.5 ns, b: 4.24 ns)

* * *

Assay: solvent given as SMILES
Conditions: in ClCCl
Measured attribute: fluorescence lifetime (ns)

In the examples that follow, each entry is paired with its recorded fluorescence lifetime.
> print(dat)
                                 smiles.str  units.text  numeric.value
1  Cc1ccccc1[B-]1(c2ccccc2C)n2nc(C(F)(F)F)cc2-c2c3ccccc3cc[n+]21          ns          0.938
2  COc1ccc(/C=C/C2=[O+][B-](F)(F)OC(/C=C/c3ccc(OC)cc3)=C2c2ccccc2)cc1          ns           1.35

[I] C[Si]1(C)c2cc(-c3ccc(N(c4ccccc4)c4ccccc4)cc3)ccc2C=Cc2ccc(-c3ccc(N(c4ccccc4)c4ccccc4)cc3)cc21
[II] O=[N+]([O-])c1ccc(O)c(-c2nc3c(c4c2-c2ccccc2CC4)-c2ccccc2CC3)c1
[III] CC1=CC(C)=[N+]2C1=Cc1cccn1[B-]2(F)F
[IV] CCN(CC)c1ccc2c(c1)oc(=O)c1cc3cnn(-c4ccccc4)c3nc12
Rank descending by fluorescence lifetime. Return value: ordered labels per request.
IV, III, I, II
(IV: 16.9 ns, III: 5.89 ns, I: 2.1 ns, II: 0.45 ns)

* * *

Assay: solvent given as SMILES
Conditions: in CCCCCCO
Measured attribute: fluorescence lifetime (ns)

> print(dat)
                                   molecule  numeric.value
1        O=C(O)COc1ccc2[nH]c3c(c2c1)CCCC3=O           1.21
2             Nc1ccc2c(C(F)(F)F)cc(=O)oc2c1           5.29
3  CCNc1cc2oc3c/c(=[NH+]\CC)c(C)cc-3c(-c3ccccc3C(=O)OCC)c2cc1C           3.88
4  O=C([O-])c1ccccc1C1=c2cc3c4c(c2Oc2c1cc1c5c2CCCN5CCC1)CCC[N+]=4CCC3           4.27
5  CCN(CC)c1ccc2c(-c3ccccc3C(=O)[O-])c3ccc(=[N+](CC)CC)cc-3oc2c1           3.41
6  CCN(CC)c1ccc2c(c1)OC1=CC(N(CC)CC)C=CC1[C+]2c1ccccc1C(=O)O (configuration not stated)           3.09
7  COC(=O)C(Cc1ccc2oc(-c3ccc(-n4c5ccccc5c5ccccc54)cc3)nc2c1)NC(=O)OC(C)(C)C (configuration not stated)           4.11

The measured values listed here are drawn from the Deep4Chem optical property database.
